A collection of molecules and their measured growth
Test system: UACC-257 melanoma
ASSAY_TEXT: NCI-60 one-dose screen, 48 h (100 = growth as untreated, 0 = no growth, -100 = all killed)
CONDITION_CONTEXT: 10 µM unless noted
The panel holds about 83,000 compounds, 20% with a hit somewhere; the sample as a whole holds those more often.
Form entry: value (%) — number only.

Below, each entry is followed by its recorded growth result.
MOLECULE: COc1cc(/C=N\NC(=O)CN2CCN(c3cc4c(cc3F)c(=O)c(C(=O)N/N=C/c3cc(OC)c(OC)c(OC)c3)cn4C3CC3)CC2)cc(OC)c1OC
MEASURED_ON: UACC-257 melanoma
READOUT_NUMBER: 22.2
--
MOLECULE: COc1ccc(/C=C2\Oc3cc(OCCCN4CCCC4)ccc3C2=O)cc1
MEASURED_ON: UACC-257 melanoma
READOUT_NUMBER: 101
--
MOLECULE: Cc1cc(N/N=C/c2nc(-c3ccc(Br)cc3)oc2C)c2cc(Cl)ccc2n1
MEASURED_ON: UACC-257 melanoma
READOUT_NUMBER: 95.6
--
MOLECULE: O=C1/C(=C/c2ccc(Cl)cc2)CN(Cc2cn(CCNc3ccnc4cc(Cl)ccc34)nn2)C/C1=C\c1ccc(Cl)cc1
MEASURED_ON: UACC-257 melanoma
READOUT_NUMBER: -92.1
--
MOLECULE: Fc1ccc(Nc2ncnc3ccc(-c4cnc5[nH]ccc5c4)cc23)cc1Cl
MEASURED_ON: UACC-257 melanoma
READOUT_NUMBER: 39.2
--
MOLECULE: COc1ccc(-c2nc3sc(-c4cc(OC)c(OC)c(OC)c4)nn3c2/C=C2/C(=O)Nc3ccc(F)cc32)cc1
MEASURED_ON: UACC-257 melanoma
READOUT_NUMBER: -25
--
MOLECULE: O=C(Nc1ccncc1)C(=O)c1cn(S(=O)(=O)c2ccccc2F)c2ccccc12
MEASURED_ON: UACC-257 melanoma
READOUT_NUMBER: 63.1
--
MOLECULE: O=S1(=O)CCC(N(/N=C/c2ccco2)c2ccccc2)C1 (stereo not given)
MEASURED_ON: UACC-257 melanoma
READOUT_NUMBER: 95.1
--
MOLECULE: COc1ccc(/C=C2/C(=O)NC(SCC(=O)N3CCN(c4cc5c(cc4F)c(=O)c(C(=O)O)cn5C4CC4)CC3)=NC2N)cc1OC (stereo not given)
MEASURED_ON: UACC-257 melanoma
READOUT_NUMBER: 108
--
MOLECULE: N/C(=N\S(=O)(=O)c1ccccc1)Nc1nc2ccccc2s1
MEASURED_ON: UACC-257 melanoma
READOUT_NUMBER: 92.6

Moving on to the next molecule.
Lab note: measured growth of C=C(C)[C@@H]1CC[C@]2(C(=O)O)CC[C@]3(C)[C@H](CC[C@@H]4[C@@]5(C)C[C@@H](CC#Cc6ccc(C(F)(F)F)cc6)[C@H](O)C(C)(C)[C@@H]5CC[C@]43C)[C@@H]12 was 7.33
